FYI, the data here is from PubChem BioAssay (NCI).

# ASSAY_METHOD_TEXT: NCI Yeast Anticancer Drug Screen. Data for the cln2 rad14 strain (AID 165)
# CONDITION_INFO: S. cerevisiae cln2 rad14 strain, at 5.0 µM (retest, dose inferred, filed as 0.5), active compounds read high
About 79,000 compounds went through this panel and 15% of them were active in at least one assay; those are over-represented in the sample as a whole.
Assign class by growth inhibition: not lower than 10% means condition met; lower than 10% means condition not met.

Please review the following examples before continuing.
CCCCC/C(=C/C=C/c1ccc(Cl)cc1)CN(C)C    condition met
Cc1ccccc1Oc1ccccc1N    condition not met
NC1C(=O)C2CCCCC2C(=O)C1C(=O)c1ccccc1 (stereo not given)    condition not met
O=C(CC(=O)c1ccccc1)CC(=O)c1cccc(Cl)c1    condition not met
Oc1cc(C(c2ccccc2)c2ccccc2)c2ccccc2c1O    condition met

Could you please find out whether Cc1ccc(C)c(S(=O)(=O)Nc2c([N+](=O)[O-])cc([N+](=O)[O-])c3ccccc23)c1 has growth inhibition that meets 10% or exceeds it?
condition met
